# tested_on: T1, PREX2_2, Q70Z35
# T1 sequence (Q70Z35 672-764, limits assumed, looked up): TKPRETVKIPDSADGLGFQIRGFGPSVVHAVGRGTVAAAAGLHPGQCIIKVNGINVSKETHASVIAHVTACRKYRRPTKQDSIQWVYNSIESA
# method_description: holdup assay
# Set-up: key: below the threshold = too weak to quantify, mostly under pKd 3.1 to 4
# study_conditions: plain residues with an end cap or a label only (N-terminal biotin on a linker: ttds)
readout_type: pKd

Worked set:
SRSRRRETAL [HPV33-E6, P06427] ... below the threshold
KLVIKTETTV [RASSF6, Q6ZTQ3] ... below the threshold
PPRQRSETQV [HPV82-E6, Q9IR59] ... below the threshold
SSIDLWETAL [SLC15A5, A6NIM6] ... below the threshold
PSRDRKETSI [RALBP1, Q15311] ... below the threshold
SHSSKGETAV [FZD7, O75084] ... 4.3

Proceeding to the next binder to report its pKd.
Provide only the value of recorded pKd for SGGKRKETLV [NET1, Q7Z628] 3.79
